procedure text: chemical genetic growth profiling, strain panel (AID 1159580);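 also: tested at 20 µM; growth read once vehicle control cultures reached saturation at 30 °C; 1 = growth at the plate median or of vehicle wells; lower values mean less growth of the strain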
test settings: S. cerevisiae deletion strains, growth OD, locus YDL185W, strain tfp1
Screen size: about 5,500 compounds; about 2,000 (36%) were called active. About 18% were inconclusive and are not listed. Rule as the data show it: active = normalized growth mostly below about 0.91 (no sharp cut-off); inconclusive = no clear call, values can overlap the other calls; inactive = mostly above about 0.92. This is one part of the list.
Classes used: true (1) for active, false (0) for inactive

| compound | group |
| --- | --- |
| O=C(/C=C/c1ccc(O)cc1)c1ccc(O)cc1O | false (0) |
| CNC(C)(C)Cc1ccccc1 | false (0) |
| O=C(Nc1ccc([N+](=O)[O-])cc1Cl)c1cc(Cl)ccc1O | false (0) |
| COC1=CC23CCCN2CCc2cc4c(cc2C3C1O)OCO4 (stereo not drawn) | false (0) |
| COc1cc(Cc2cnc(N)nc2N)cc(OC)c1OC | false (0) |
| Cc1cc(O)c2c(c1)C(=O)c1cc(O)cc(O)c1C2=O | true (1) |
| CCCCN(CC)c1c([N+](=O)[O-])cc(C(F)(F)F)cc1[N+](=O)[O-] | false (0) |
| Cc1c(NC(C)C)c(=O)n(-c2ccccc2)n1C | false (0) |
| COc1cc(OC)c2c(OC)c(-c3ccc4c(c3)OCO4)c(=O)oc2c1 | false (0) |
| O=C1C=C(O)c2ccccc2C1=O | false (0) |
| CCCN(CCC)c1c([N+](=O)[O-])cc(C(F)(F)F)cc1[N+](=O)[O-] | false (0) |
| COC(=O)CC1C(C)(C)C(=O)C2CC3(O)C4=CC(=O)OC(c5ccoc5)C4(C)CCC3C1(C)C2=O (stereo not drawn) | false (0) |
| COc1ccccc1OCC(O)COC(N)=O (stereo not drawn) | false (0) |
| CC(C)c1cc2c(c(O)c1O)[C@@]1(C(=O)O)CCCC(C)(C)C1CC2 (stereo partly drawn) | false (0) |
| CC(C)C1CCC(C(=O)N[C@@H](Cc2ccccc2)C(=O)O)CC1 (stereo partly drawn) | false (0) |
| CON | false (0) |
| O=C(/C=C/c1ccccc1)c1ccc(O[C@@H]2O[C@H](CO)[C@@H](O)[C@H](O)[C@H]2O)cc1O | true (1) |
| CC1=C(C(=O)O)N2C(=O)[C@@H](NC(=O)[C@@H](N)c3ccc(O)cc3)[C@H]2SC1 | false (0) |
| N[C@@H](C(=O)N[C@@H]1C(=O)N2C(C(=O)O)=C(Cl)CS[C@H]12)c1ccccc1 | false (0) |
| OC[C@H]1O[C@@H](Oc2ccc(O)cc2)[C@H](O)[C@@H](O)[C@@H]1O | false (0) |
| C/C(=C\CO)CC[C@H](C)CCC[C@H](C)CCCC(C)C | true (1) |
| O=C(CCc1ccc(O)cc1)c1c(O)cc(O)cc1O | false (0) |
| C=C[C@H]1CN2CC[C@H]1C[C@H]2[C@H](O)c1ccnc2ccccc12 | false (0) |

###

procedure text: chemical genetic growth profiling, strain panel (AID 1159580);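 also: tested at 20 µM; growth read once vehicle control cultures reached saturation at 30 °C; 1 = growth at the plate median or of vehicle wells; lower values mean less growth of the strain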
test settings: S. cerevisiae deletion strains, growth OD, locus YOR061W, strain CKA2
Among all 5,500 compounds or so, about 2,000 (36%) were called active. Roughly 18% stayed inconclusive and do not appear here. No stated cut-off is given here; in the data, active means normalized growth mostly below about 0.91 (no sharp cut-off); inconclusive means no clear call, values can overlap the other calls; inactive means mostly above about 0.92. The list shows a part of the results.
Classes used: class 1 for active, class 0 for inactive

| compound | group |
| --- | --- |
| COC1=CC23CCCN2CCc2cc4c(cc2C3C1O)OCO4 (configuration not stated) | class 0 |
| CCOC(=O)C(NC(=O)c1cccc(Cl)c1)(Nc1nc2ccccc2s1)C(F)(F)F (configuration not stated) | class 0 |
| CCOC(=O)c1ccc(N=Cc2cc(Cl)cc(Cl)c2O)cc1 | class 1 |
| Cn1cnc2c1c(=O)[nH]c(=O)n2C | class 0 |
| CC(C)c1cccc(C(C)C)c1OC(=O)NC(=O)c1c(Cl)cccc1Cl | class 0 |
| COc1cc(C2SCCS2)cc(Br)c1OC(=O)NC(=O)c1c(Cl)cccc1Cl | class 0 |
| CC(C)c1cc2c(c(O)c1O)[C@@]1(C(=O)O)CCCC(C)(C)C1CC2 (some centres not stated) | class 0 |
| Cc1cc(O)c2c(c1)C(=O)c1cccc(O)c1C2=O | class 0 |
| CNC(C)(C)Cc1ccccc1 | class 0 |
| C[C@]12[C@H](O)CC3C(CC[C@@H]4C[C@@H](O)CC[C@]34C)[C@@]1(O)CC[C@@H]2C1=CC(=O)OC1 (some centres not stated) | class 0 |
| FC(F)(F)c1ccncc1-c1nc(-c2ccc(Cl)cc2)cs1 | class 0 |
| Cc1cc(C)c2cc(C(=O)NCCNc3ccc(C(F)(F)F)cn3)[nH]c2c1 | class 1 |
| Cn1c(=O)[nH]c2nc[nH]c2c1=O | class 0 |
| C=CCC1C(=O)N(S(=O)(=O)c2ccc(Cl)cc2)N=C1CCC (configuration not stated) | class 0 |
| S=C(NCCc1csc2ccccc12)Nc1ccc(Cl)cc1 | class 0 |
| N[C@@H](C(=O)N[C@@H]1C(=O)N2C(C(=O)O)=C(Cl)CS[C@H]12)c1ccccc1 | class 0 |
| NS(=O)(=O)c1cc2c(cc1Cl)NCNS2(=O)=O | class 0 |
| O=C(Nc1ccccc1Sc1ccc(C(F)(F)F)cc1[N+](=O)[O-])C(Cl)Cl | class 0 |
| Cn1c(=O)[nH]c2ncn(C)c2c1=O | class 0 |
| O=C1C(NCc2ccccc2)=C(NCc2ccccc2)C(=O)c2ccccc21 | class 0 |
| CC[C@H]1OC(=O)[C@H](C)[C@@H](O[C@H]2C[C@@](C)(OC)[C@@H](O)[C@H](C)O2)[C@H](C)[C@@H](O[C@@H]2O[C@H](C)C[C@H](N(C)C)[C@H]2O)[C@](C)(O)C[C@@H](C)/C(=N/OCOCCOC)[C@H](C)[C@@H](O)[C@]1(C)O | class 0 |
| O=C(O)c1cc(O)c2c(c1)C(=O)c1cc(O)cc(O)c1C2=O | class 0 |
| O=C(/C=C/c1ccc(O)cc1)c1ccc(O)cc1O | class 0 |
| CON | class 0 |
| Cn1c(=O)c2c(ncn2CCO)n(C)c1=O | class 0 |
| O=C(N[C@@H](CO)[C@H](O)c1ccc([N+](=O)[O-])cc1)C(Cl)Cl | class 0 |
| O=C1C=C(O)c2ccccc2C1=O | class 0 |
| CN1CCC[C@H]1c1cccnc1 | class 0 |
| CC(=O)CCCCn1c(=O)c2c(ncn2C)n(C)c1=O | class 0 |
| O=C1c2cccc(O)c2C(=O)c2c(O)cccc21 | class 1 |
| COc1cc(O)c2c(c1)C(=O)c1cc(C)cc(O)c1C2=O | class 0 |
| CC(=O)c1ccc(Sc2ccccc2)c([N+](=O)[O-])c1 | class 0 |
| C/C(=C\CO)CC[C@H](C)CCC[C@H](C)CCCC(C)C | class 0 |
| COc1ccc(/C=C/c2cc(O)cc(O[C@@H]3O[C@H](CO)[C@@H](O)[C@H](O)[C@H]3O)c2)cc1 | class 0 |
| O=C(/C=C/c1ccccc1)c1ccc(O[C@@H]2O[C@H](CO)[C@@H](O)[C@H](O)[C@H]2O)cc1O | class 0 |
| CCOC(=O)C(O)(c1ccc(NC(=O)c2ccc(Cl)c(Cl)c2)cc1)C(F)(F)F (configuration not stated) | class 0 |
| CC1=C(C(=O)O)N2C(=O)[C@@H](NC(=O)[C@@H](N)c3ccc(O)cc3)[C@H]2SC1 | class 0 |
| O=[N+]([O-])c1ccc(Sc2ccccc2)c([N+](=O)[O-])c1 | class 0 |
| O=C(O)CCC(=O)OC[C@@H](NC(=O)C(Cl)Cl)[C@H](O)c1ccc([N+](=O)[O-])cc1 | class 0 |
| CC(C)Sc1c(Cl)cccc1NC(=O)Nc1cccc(C(F)(F)F)c1 | class 0 |
| CC(C)[C@@H]1CC[C@@H](C)C[C@H]1OC(=O)c1ccccc1 | class 0 |
| COC(=O)c1sccc1S(=O)(=O)Nc1cc(C(F)(F)F)cc(C(F)(F)F)c1 | class 0 |

###

procedure text: chemical genetic growth profiling, strain panel (AID 1159580);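 also: tested at 20 µM; growth read once vehicle control cultures reached saturation at 30 °C; 1 = growth at the plate median or of vehicle wells; lower values mean less growth of the strain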
test settings: S. cerevisiae deletion strains, growth OD, locus YOL012C, strain htz1
The whole screen tested about 5,500 compounds, of which about 2,000 (36%) were called active. Inconclusive results (about 18%) are left out. Some of the results follow.
Below: a set of entries, each annotated with reported normalized growth.
metric: normalized growth

| molecule | number |
| --- | --- |
| CCCc1ncc(C[n+]2ccccc2C)c(N)n1 | 0.884 |
| Cn1c(=O)[nH]c2nc[nH]c2c1=O | 0.704 |
| C/C(=C\CO)CC[C@H](C)CCC[C@H](C)CCCC(C)C | 1.59 |
| CC(C)OC(=O)Nc1cccc(Cl)c1 | 0.915 |
| Cn1c(=O)c2c(ncn2C)n(C)c1=O | 0.798 |
| COP(=O)(NC(C)=O)SC (stereo unspecified) | 0.88 |
| Cn1c(=O)c2c(ncn2CCCl)n(C)c1=O | 0.951 |
| COC(=O)c1cc(OC)c(=O)c2c(OC)c(OC)ccc2c1 | 0.895 |
| CC(=O)NS(=O)(=O)c1ccc(N)cc1 | 0.651 |
| O=C1C(=O)c2ccccc2C(O)=C1C1CCC(c2ccc(Cl)cc2)CC1 (stereo unspecified) | 1.05 |
| CC(C)C1CCC(C(=O)N[C@@H](Cc2ccccc2)C(=O)O)CC1 (stereo partly specified) | 1.07 |
